Cited source: paper PMC8368996

molecular target: PPxYc; test: FP
Attribute measured: Kd

Which Kd value is on record for GPLPPGWEERIHLDGRTFYIDHNSKITQWEDPRL (domain or fragment) [NEDD4L WW4 domain] ?
> 400 µM
